- ASSAY SUMMARY: In vivo PK study in male Sprague Dawley rats
- TEST SETTINGS: male, Sprague Dawley, rat, plasma; rats, PO, dosage of 3 mg/kg; read-out: Bioavailability
Assign yes (1) to entries whose bioavailability meets or exceeds 50%; assign no (0) to the rest.

INSERT INTO results (chemical_structure, discrete_label) VALUES
  ('Cn1cc(-c2nc(-c3ccc(C(F)(F)F)cn3)cc3c(=O)n(CC(C)(C)O)cnc23)cn1', 'no (0)'),
  ('C[C@@H](CO)n1cnc2c(-c3cccnc3)nc(-c3ccc(C(F)(F)F)cn3)cc2c1=O', 'yes (1)'),
  ('C[C@@H](CO)n1cnc2c(-c3cccc(F)c3)nc(-c3ccc(Cl)cc3)cc2c1=O', 'yes (1)'),
  ('O=c1c2cc(-c3ccc(C(F)(F)F)nc3)nc(-c3cccnc3)c2ncn1[C@@H]1COC[C@H]1O', 'yes (1)'),
  ('CC(C)(O)Cn1cnc2c(-c3cccnc3)nc(-c3ccc(C(F)(F)F)cn3)cc2c1=O', 'yes (1)'),
  ('Cn1cc(-c2nc(-c3ccc(C(F)(F)F)nc3)cc3c(=O)n(CC(C)(C)O)cnc23)cn1', 'no (0)'),
  ('C[C@H](n1cnc2c(-c3cnn(C)c3)nc(-c3ccc(Cl)cc3)cc2c1=O)C(C)(C)O', 'yes (1)');
